The measurements presented in this section are drawn from ChEMBL document CHEMBL1126044.

Parameter IC50: see the listing below.
Molecular target: Growth hormone-releasing hormone receptor (Rattus norvegicus, UniProt Q02644)
Sequence (Q02644 whole entry): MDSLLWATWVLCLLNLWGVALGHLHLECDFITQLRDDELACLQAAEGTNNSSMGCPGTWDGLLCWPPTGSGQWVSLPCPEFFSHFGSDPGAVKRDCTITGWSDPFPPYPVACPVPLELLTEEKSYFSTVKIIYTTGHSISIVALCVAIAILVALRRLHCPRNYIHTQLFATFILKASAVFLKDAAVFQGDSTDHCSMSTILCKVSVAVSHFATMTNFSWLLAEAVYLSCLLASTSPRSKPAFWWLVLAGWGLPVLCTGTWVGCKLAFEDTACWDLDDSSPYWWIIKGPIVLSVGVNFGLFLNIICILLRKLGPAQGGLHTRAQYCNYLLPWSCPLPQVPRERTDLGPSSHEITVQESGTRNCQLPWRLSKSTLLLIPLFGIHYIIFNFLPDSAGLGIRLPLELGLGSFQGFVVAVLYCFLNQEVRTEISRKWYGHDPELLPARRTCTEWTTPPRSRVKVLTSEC
Experiment: Compound was tested to Inhibit [125I]GRF in rat adenopituitary homogenates

Please review the entries below; each comes with its answer.
SUBSTANCE	VALUE MEASURED
H-YADAIFTNSYRKQLSARKLLQDIMSR-NH2	> 1 µM
H-YADAIFTNSYRKGQLSARKLLQDIMSR-NH2	> 1 µM
H-YADAIFTNSYRKVLGQLSLLQDIMSR-NH2	1 µM
H-YADAIFTNSYRKVLGLSARKLLQDIMSR-NH2	> 1 µM

Consider now this further substance.
Recall and state the measured IC50 for "H-YADAIFTNSYRKVLGLLQDIMSR-NH2" .
> 1 µM
